Overview of recorded Regrowth, OD600 at 6h or 8h after dilution into drug-free medium (average) for various molecules
System: non-growing UPEC CFT073
protocol: Dilution-regrowth assay (screen, hit validation, dose-response) on stationary-phase UPEC
Format: cell-based, Escherichia coli
condition details: E. coli in 1:4 CA-MHB (pH 7.4); drug concentration 2.5
# print the numeric value only

Look over these answered cases.
[H]/N=C(\N/C(=N/[H])NCCCCCCNC(=N)NC(=N)Nc1ccc(Cl)cc1)Nc1ccc(Cl)cc1 [Chlorhexidine]: 0.634
CO[C@@]12[C@H](COC(N)=O)C3=C(C(=O)C(C)=C(N)C3=O)N1C[C@@H]1N[C@@H]12 [Mitomycin C]: 0.482
CCCCC(CC)CNC(=N)NC(=N)NCCCCCCNC(=N)NC(=N)NCC(CC)CCCC (stereo not shown) [Alexidine]: 0.636

Consider the additional molecule presented here.
May I ask what Regrowth, OD600 at 6h or 8h after dilution into drug-free medium (average) has been recorded for CC(=O)[O][Pt]([NH2])([Cl])([Cl])([NH]C1CCCCC1)[O]C(C)=O [Satraplatin] ?
0.601
